Just for reference, ChEMBL document CHEMBL1275331 is where these values come from.

Parameter Kp at 2 h: see the listing below.
test_description: Ratio of drug level in brain to blood in Sprague-Dawley rat at 3 mg/kg, po after 2 hrs
Type: ADME, organism-based
Design: dose 3 mg/kg, route oral
readout_label: Kp at 2 h

• CC(=O)N1CCc2c(sc3nc(SCCCN4CCN(c5ccc6ccccc6n5)CC4)n(N)c(=O)c23)C1 = 0.332
• Nn1c(SCCCN2CCN(c3ccc4ccccc4n3)CC2)nc2c(c1=O)CCCC2 = 2.99
• Nn1c(CCCCN2CCN(c3ccc4ccccc4n3)CC2)nc2ccccc2c1=O = 7.11
• Nn1c(CCCCN2CCN(c3ccc4ccccc4n3)CC2)nc2c(c1=O)CCCC2 = 2.56
• CC(=O)N1CCc2c(sc3nc(CCCCN4CCN(c5ccc6ccccc6n5)CC4)n(N)c(=O)c23)C1 = 0.294

###

test_system: UniProtKB P30542
Sequence (P30542 whole entry): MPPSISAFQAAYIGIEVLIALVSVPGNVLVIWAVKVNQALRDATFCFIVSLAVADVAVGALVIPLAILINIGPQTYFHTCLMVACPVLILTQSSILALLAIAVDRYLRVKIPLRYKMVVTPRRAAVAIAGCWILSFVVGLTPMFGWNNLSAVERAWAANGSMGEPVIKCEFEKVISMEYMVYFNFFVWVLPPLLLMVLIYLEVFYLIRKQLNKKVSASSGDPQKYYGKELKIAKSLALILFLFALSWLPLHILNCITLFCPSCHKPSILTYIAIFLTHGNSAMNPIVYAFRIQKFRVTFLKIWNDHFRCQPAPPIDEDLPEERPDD
test_description: Displacement of [3H]DPCPX from human recombinant adenosine A1 receptor
pIC50: −log10 of the molar value.
readout_label: pIC50

* Nn1c(CCCCN2CCN(c3ccc4ccccc4n3)CC2)nc2c(c1=O)CCCC2 | < 6.00

###

test_system: D(2) dopamine receptor (Homo sapiens, UniProt P14416)
Sequence (P14416 whole entry): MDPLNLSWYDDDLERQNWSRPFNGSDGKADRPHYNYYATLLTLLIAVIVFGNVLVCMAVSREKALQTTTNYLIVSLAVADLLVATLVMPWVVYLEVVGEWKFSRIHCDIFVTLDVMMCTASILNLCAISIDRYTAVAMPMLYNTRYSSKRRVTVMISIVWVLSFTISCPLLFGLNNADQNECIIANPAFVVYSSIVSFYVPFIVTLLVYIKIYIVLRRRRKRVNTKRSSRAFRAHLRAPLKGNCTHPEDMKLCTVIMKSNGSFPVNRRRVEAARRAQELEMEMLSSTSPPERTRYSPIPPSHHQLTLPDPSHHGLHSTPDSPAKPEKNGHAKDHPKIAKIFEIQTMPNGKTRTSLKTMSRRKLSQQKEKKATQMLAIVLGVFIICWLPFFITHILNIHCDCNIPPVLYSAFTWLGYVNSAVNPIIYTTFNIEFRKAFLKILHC
test_description: Inhibition of human dopamine D2 receptor
readout_label: IC50

- Nn1c(CCCCN2CCN(c3ccc4ccccc4n3)CC2)nc2c(c1=O)CCCC2: > 0.1 µM

###

test_system: Muscarinic acetylcholine receptor M3 (Homo sapiens, UniProt P20309)
Sequence (P20309 whole entry): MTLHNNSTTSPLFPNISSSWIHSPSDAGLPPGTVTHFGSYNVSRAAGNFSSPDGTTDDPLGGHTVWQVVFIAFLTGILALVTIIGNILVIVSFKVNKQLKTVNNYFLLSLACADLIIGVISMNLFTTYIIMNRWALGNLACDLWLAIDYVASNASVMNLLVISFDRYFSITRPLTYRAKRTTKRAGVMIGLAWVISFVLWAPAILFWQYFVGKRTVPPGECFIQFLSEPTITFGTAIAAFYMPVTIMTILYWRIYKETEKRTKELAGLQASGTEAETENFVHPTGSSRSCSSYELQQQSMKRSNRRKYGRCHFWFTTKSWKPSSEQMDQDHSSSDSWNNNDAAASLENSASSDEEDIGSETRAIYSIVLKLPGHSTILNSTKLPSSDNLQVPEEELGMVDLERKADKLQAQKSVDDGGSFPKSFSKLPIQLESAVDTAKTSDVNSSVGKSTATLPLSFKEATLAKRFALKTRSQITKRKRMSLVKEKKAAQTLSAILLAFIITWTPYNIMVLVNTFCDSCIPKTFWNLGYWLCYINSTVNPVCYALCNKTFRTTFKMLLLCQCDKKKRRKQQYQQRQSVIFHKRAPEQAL
test_description: Displacement of [3H]4-DAMP from human recombinant muscarinic M3 receptor
readout_label: IC50

* Nn1c(CCCCN2CCN(c3ccc4ccccc4n3)CC2)nc2c(c1=O)CCCC2 | > 1000 nM

###

test_system: 5-hydroxytryptamine receptor 3A (Cavia porcellus) (UniProt O70212)
Sequence (O70212 whole entry): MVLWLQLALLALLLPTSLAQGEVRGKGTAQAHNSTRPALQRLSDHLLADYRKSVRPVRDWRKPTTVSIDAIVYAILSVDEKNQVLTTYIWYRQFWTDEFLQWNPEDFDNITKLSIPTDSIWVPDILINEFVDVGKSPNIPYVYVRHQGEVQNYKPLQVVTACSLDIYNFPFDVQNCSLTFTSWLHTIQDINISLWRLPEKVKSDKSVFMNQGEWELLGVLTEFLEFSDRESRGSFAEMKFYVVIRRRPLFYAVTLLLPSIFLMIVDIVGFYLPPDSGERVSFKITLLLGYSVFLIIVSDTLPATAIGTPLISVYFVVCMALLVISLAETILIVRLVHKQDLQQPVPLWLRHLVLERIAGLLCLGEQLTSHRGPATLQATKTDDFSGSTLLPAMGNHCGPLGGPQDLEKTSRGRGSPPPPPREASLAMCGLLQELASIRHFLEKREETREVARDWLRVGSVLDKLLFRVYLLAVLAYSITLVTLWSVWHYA
test_description: Inhibition of 5HT3 receptor-mediated contraction of guinea pig ileum at 1 umol/L after 20 mins relative to control
Type: tissue-based
Parameter inhibition: see the listing below.
readout_label: inhibition (%)

- Nn1c(SCCCN2CCN(c3ccc4ccccc4n3)CC2)nc2c(c1=O)CCCC2: 95.1
- Nn1c(CCCCN2CCN(c3ccc4ccccc4n3)CC2)nc2c(c1=O)CCCC2: 96.8
- CC(=O)N1CCc2c(sc3nc(SCCCN4CCN(c5ccc6ccccc6n5)CC4)n(N)c(=O)c23)C1: 97.6
- Cc1cc(N2CCN(CCCCc3nc4c(c(=O)n3N)CCCC4)CC2)nc2ccccc12: 100
- Cc1sc2nc(SCCCN3CCN(c4ccc5ccccc5n4)CC3)n(N)c(=O)c2c1C: 41.9
- Nn1c(CCCCN2CCN(c3ccc4ccccc4n3)CC2)nc2ccccc2c1=O: 90.1
